- Tested on: CP305
- ASSAY_EXPLANATION: qHTS profiling for inhibitors of Plasmodium falciparum proliferation (AID 504749); also: nearly all actives have a fitted effect of over 60% in size
- CONDITION_SUMMARY: P. falciparum in erythrocytes, SYBR Green DNA, 72 h; series mostly up to 28.7 µM
- Description: NIH National Institute of Allergy and Infectious Diseases [NIAID] NIH Chemical Genomics Center [NCGC] […] Because mature erythrocytes lack DNA, only Plasmodium-derived DNA is detected. NCGC Assay Protocol Summary: The SYBR Green viability assay was adapted from a method described previously (Plouffe et al., 2008). […] The following morning, fluorescence intensity at 485(14) nm excitation and 535(25) nm emission wavelengths was measured on an EnVision (Perkin Elmer) plate reader. […]
Results filed as inconclusive are left out. Active and inactive are the calls of the source. Calls follow the shape of the dose curve; as a rule, active = well fitted inhibition curve with a large enough effect; inconclusive = small, poorly fitted or top-dose-only effect; inactive = flat fitted curve, though single readings scatter.
Your reply should match one of these outcome classes. active, inactive

Oc1c(I)cc(Cl)c2cccnc12 = inactive

Returns: the outcome recorded for "NCCCC[C@H](N[C@@H](CCc1ccccc1)C(=O)O)C(=O)N1CCC[C@H]1C(=O)O" in this assay.
inactive
